This collection of values is drawn from patent US12544463B2.

tgt: serotonin transporters (SERT) (Rattus norvegicus)
Construct: expressed in transfected cells; host or cells: LLC-PK1 (LLC-SERT)
measurement-description: In vitro binding assay, LLC-SERT membrane homogenates, [^125I]IDAM
condition-set: 0.2 nM [^125I]IDAM, LLC-SERT membranes; read-out: Ki (SERT binding affinity) (converted)
property-name: Ki (nM)

Before answering, review these 3 worked examples.
* CNCc1cc(OCCCF)ccc1Sc1ccccc1N | 5.26
* [2H]C([2H])([2H])NCc1cc(OCCCF)ccc1Sc1ccccc1N | 3.05
* CN(C)Cc1cc(O)ccc1Sc1ccc(Cl)cc1N | 0.03

[A] CN(C)Cc1cc(O)ccc1Sc1ccc(Br)cc1N
[B] [2H]C([2H])([2H])N(Cc1cc(OC([2H])([2H])C([2H])([2H])C([2H])([2H])F)ccc1Sc1ccccc1N)C([2H])([2H])[2H] (single isomer, unassigned)
[C] [2H]C([2H])(F)C([2H])([2H])C([2H])([2H])Oc1ccc(Sc2ccccc2N)c(CN(C)C)c1 (single isomer, unassigned)
Order the entries by their reported Ki, beginning at the minimum. Order the labels as requested and list them.
A, B, C
(A: 0.02 nM, B: 0.086 nM, C: 0.14 nM)

[1] [2H]C([2H])(F)C([2H])([2H])C([2H])([2H])Oc1ccc(Sc2ccc(Br)cc2N)c(CN(C)C)c1
[2] [2H]C([2H])(F)C([2H])([2H])C([2H])([2H])Oc1ccc(Sc2ccc(Cl)cc2N)c(CN(C)C)c1
Two entries are listed, 1 and 2 . Which one carries the higher Ki? Identify your pick by its label.
1
(1: 0.021 nM, 2: 0.009 nM)

----------
tgt: serotonin transporters (SERT) (Rattus norvegicus, UniProt P31652)
Construct: expressed in transfected cells; host or cells: LLC-PK1 (LLC-SERT)
Sequence (P31652 whole entry): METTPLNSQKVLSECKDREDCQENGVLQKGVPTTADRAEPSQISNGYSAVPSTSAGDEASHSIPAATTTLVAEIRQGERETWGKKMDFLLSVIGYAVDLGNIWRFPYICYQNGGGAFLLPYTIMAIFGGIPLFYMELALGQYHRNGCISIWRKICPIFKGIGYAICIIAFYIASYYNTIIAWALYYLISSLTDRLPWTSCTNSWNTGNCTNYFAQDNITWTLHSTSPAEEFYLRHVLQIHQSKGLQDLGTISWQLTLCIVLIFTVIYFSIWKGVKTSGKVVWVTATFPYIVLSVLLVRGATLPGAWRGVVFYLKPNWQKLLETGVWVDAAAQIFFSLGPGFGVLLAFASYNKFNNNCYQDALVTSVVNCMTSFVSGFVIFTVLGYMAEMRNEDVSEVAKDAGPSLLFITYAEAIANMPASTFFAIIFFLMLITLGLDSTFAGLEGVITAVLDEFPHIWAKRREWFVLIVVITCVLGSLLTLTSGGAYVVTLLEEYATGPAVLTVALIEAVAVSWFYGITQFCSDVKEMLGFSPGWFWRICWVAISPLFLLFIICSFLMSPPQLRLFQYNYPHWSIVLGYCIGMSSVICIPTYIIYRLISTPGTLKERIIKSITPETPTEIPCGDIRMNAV
measurement-description: In vitro binding assay, LLC-SERT membrane homogenates, [^125I]IDAM
condition-set: 0.2 nM [^125I]IDAM, LLC-SERT membranes; read-out: Ki (SERT binding affinity) (converted)
property-name: Ki (nM)

[A] NCc1cc(OCCCF)ccc1Sc1ccccc1N
[B] CN(C)Cc1cc(O)ccc1Sc1ccc(F)cc1N
[C] CN(C)Cc1cc(OCCCF)ccc1Sc1ccc(F)cc1N
[D] [2H]C([2H])([2H])N(Cc1cc(OCCCF)ccc1Sc1ccccc1N)C([2H])([2H])[2H] (single isomer, unassigned)
Put the items above in order of decreasing Ki. Order the labels as requested and list them.
A, B, D, C
(A: 39.3 nM, B: 0.22 nM, D: 0.032 nM, C: 0.022 nM)

[1] [2H]C([2H])(F)C([2H])([2H])C([2H])([2H])Oc1ccc(Sc2ccc(F)cc2N)c(CN(C)C)c1
[2] CN(C)Cc1cc(O)ccc1Sc1ccccc1N
Kindly compare 1 with 2 and tell me which has the lower Ki figure. Identify your pick by its label.
1
(1: 0.024 nM, 2: 1.21 nM)

[1] [2H]C([2H])([2H])N(Cc1cc(O)ccc1Sc1ccccc1N)C([2H])([2H])[2H]
[2] CN(C)Cc1cc(OCCCF)ccc1Sc1ccccc1N [III-1 (FPBM), reference compound]
Kindly compare 1 with 2 and tell me which has the lower Ki figure. Identify your pick by its label.
2
(2: 0.052 nM, 1: 2.02 nM)

[a] [2H]C([2H])(F)C([2H])([2H])C([2H])([2H])Oc1ccc(Sc2ccc(I)cc2N)c(CN(C)C)c1
[b] [2H]C([2H])(F)C([2H])([2H])C([2H])([2H])Oc1ccc(Sc2ccccc2N)c(CN)c1
Two entries are listed, a and b . Which one carries the higher Ki? Identify your pick by its label.
b

----------
tgt: vesicular monoamine transporter 2 (VMAT2) (Rattus norvegicus)
Construct: Tissue homogenates of striatum (dissected from rat brain) were prepared; from tissue; host or cells: rat brain striatum homogenate
Sequence (Q01827 whole entry): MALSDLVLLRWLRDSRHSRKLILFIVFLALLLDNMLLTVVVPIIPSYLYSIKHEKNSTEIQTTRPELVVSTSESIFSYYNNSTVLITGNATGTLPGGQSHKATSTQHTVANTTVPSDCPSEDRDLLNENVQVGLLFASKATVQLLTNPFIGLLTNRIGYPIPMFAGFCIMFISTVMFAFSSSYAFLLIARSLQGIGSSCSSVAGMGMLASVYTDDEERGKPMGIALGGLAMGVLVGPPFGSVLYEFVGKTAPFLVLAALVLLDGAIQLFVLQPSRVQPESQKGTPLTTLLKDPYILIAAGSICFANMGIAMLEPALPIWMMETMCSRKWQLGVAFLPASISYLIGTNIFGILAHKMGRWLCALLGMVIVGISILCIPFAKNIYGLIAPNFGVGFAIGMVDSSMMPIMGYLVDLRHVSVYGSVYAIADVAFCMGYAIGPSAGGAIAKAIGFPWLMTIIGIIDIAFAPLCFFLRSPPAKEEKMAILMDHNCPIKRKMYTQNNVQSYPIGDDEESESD
measurement-description: In vitro binding assay for Ki determination, rat striatum homogenates
condition-set: hot ligand ^18F-AV-133; Avg ± SD, n = 3; read-out: Ki of cold competing drug
property-name: Ki (nM)

- [2H]C([2H])(F)C([2H])([2H])C([2H])([2H])Oc1cc2c(cc1OC)[C@H]1C[C@@H](O)[C@H](CC(C)C)CN1CC2: 0.32
- COc1cc2c(cc1OCCCF)CCN1C[C@@H](CC(C)C)[C@H](O)C[C@H]21 [AV-133, reference compound]: 0.33

----------
tgt: vesicular monoamine transporter 2 (VMAT2) (Rattus norvegicus)
Construct: Tissue homogenates of striatum (dissected from rat brain) were prepared; from tissue; host or cells: rat brain striatum homogenate
measurement-description: In vitro binding assay for Ki determination, rat striatum homogenates
condition-set: hot ligand ^18F-AV-133-D6; Avg ± SD, n = 3; read-out: Ki of cold competing drug
property-name: Ki (nM)

* [2H]C([2H])(F)C([2H])([2H])C([2H])([2H])Oc1cc2c(cc1OC)[C@H]1C[C@@H](O)[C@H](CC(C)C)CN1CC2 [Ia (AV-133-D6)] | 0.33
* COc1cc2c(cc1OCCCF)CCN1C[C@@H](CC(C)C)[C@H](O)C[C@H]21 [AV-133, reference compound] | 0.26
